Tested on: Mtb 8666/2010
test-protocol: microbe, parasite or virus in culture
Type: cell-based
conditions: Mycobacterium tuberculosis, 8666/2010, 336 h, read-out: MIC Mtb 8666/2010
Task for the reader: assign each of the following compounds its reported MIC.
Value expressed in µM; do not type the unit.

Data request: For CCCCCCCCNC(=O)NNC(=O)c1cc([N+](=O)[O-])cc([N+](=O)[O-])c1 [Compound 4h] , write its MIC.
Data returned: 1

Data request: For CCCCNc1nnc(-c2cc([N+](=O)[O-])cc([N+](=O)[O-])c2)o1 [Compound 5d] , write its MIC.
Data returned: 0.5

Data request: For CCCCCCCCCNc1nnc(-c2cc([N+](=O)[O-])cc([N+](=O)[O-])c2)o1 [Compound 5i] , write its MIC.
Data returned: 0.06

Data request: For CCCCCCCCCCCCCNc1nnc(-c2cc([N+](=O)[O-])cc([N+](=O)[O-])c2)o1 [Compound 5m] , write its MIC.
Data returned: 0.06

Data request: For CCCCCCCCCCCCNc1nnc(-c2cc([N+](=O)[O-])cc([N+](=O)[O-])c2)s1 [Compound 5s] , write its MIC.
Data returned: 0.5
